- assay_system: human GPR55 (Homo sapiens, UniProt Q9Y2T6)
- Sequence (Q9Y2T6 whole entry): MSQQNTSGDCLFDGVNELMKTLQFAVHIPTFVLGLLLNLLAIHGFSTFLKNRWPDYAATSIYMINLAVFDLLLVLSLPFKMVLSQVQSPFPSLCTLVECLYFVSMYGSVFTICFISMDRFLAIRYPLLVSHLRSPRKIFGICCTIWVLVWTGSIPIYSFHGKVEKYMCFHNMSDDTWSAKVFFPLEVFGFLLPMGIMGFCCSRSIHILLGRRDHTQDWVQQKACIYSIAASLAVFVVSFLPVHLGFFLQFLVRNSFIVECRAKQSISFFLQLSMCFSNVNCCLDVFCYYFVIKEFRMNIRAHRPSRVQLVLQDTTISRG
- protocol_summary: β-arrestin recruitment assay (PathHunter), CHO cells expressing GPR55
- conditions: in words
recorded_metric: functional property at GPR55 (agonist/antagonist)

- CCCc1ccc(O)c(-c2cc(CCC)ccc2OC)c1 [Compound 12a, methoxytetrahydromagnolol]: antagonist
- CCCCCCc1ccc(OC)c(-c2cc(CCC)ccc2O)c1 [Compound 61b]: antagonist
- C=CCc1ccc(O)c(-c2ccc(OC)c(CC=C)c2)c1 [Compound 11, 4′-O-Methylhonokiol, reference compound]: antagonist

====

- assay_system: human GPR18 (Homo sapiens, UniProt Q14330)
- Sequence (Q14330 whole entry): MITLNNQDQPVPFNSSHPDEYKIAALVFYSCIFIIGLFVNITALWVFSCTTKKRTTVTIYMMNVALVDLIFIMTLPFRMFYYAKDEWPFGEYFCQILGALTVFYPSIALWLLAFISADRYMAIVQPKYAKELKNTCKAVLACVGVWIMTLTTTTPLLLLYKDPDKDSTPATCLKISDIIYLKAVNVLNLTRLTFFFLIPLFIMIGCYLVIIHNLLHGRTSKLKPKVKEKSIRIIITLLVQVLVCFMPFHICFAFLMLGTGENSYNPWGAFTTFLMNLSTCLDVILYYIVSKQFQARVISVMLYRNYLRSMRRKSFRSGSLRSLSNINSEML
- protocol_summary: cell-based
- conditions: CHO, read-out: % inhibition of Δ9-THC (10 µM)-induced β-arrestin recruitment at GPR18, test compound at 10 µM
// map inhibition at 10 µM to label using range 1: < 40%; range 2: ≥ 40% and < 80%; range 3: ≥ 80%

See these solved cases before continuing.
* C=CCc1ccc(O)c(-c2cc(CC=C)ccc2O)c1 [Compound 9, reference compound] | range 1
* CCCCCc1ccc(O)c(-c2cc(C)ccc2O)c1 | range 2
* CCCCCCc1ccc(O)c(-c2ccccc2O)c1 | range 2

Sort into band: COc1ccc(C(=O)c2c(C)n(CCN3CCOCC3)c3cc(I)ccc23)cc1 [Compound 7, reference compound]
range 2

# bin label for CCCCCCc1ccc(OC)c(-c2cc(CCC)ccc2O)c1 [Compound 61b]
range 1

Kindly identify the class of CCCCCc1ccc(O)c(-c2cc(CCC)ccc2OC)c1 [Compound 60a] .
range 2

Which class holds CCCCCCCc1ccc(O)c(-c2cc(CCC)ccc2O)c1 ?
range 3

Band for the recorded inhibition at 10 µM of CCCCCCc1ccc(O)c(-c2cc(C)ccc2O)c1 ?
range 3

Form: Item = CCCc1ccc(O)c(-c2cc(C(C)(C)C)ccc2O)c1 ; Class = ?
range 2

Bin this entry: CCCc1ccc(O)c(-c2cc(CC)ccc2O)c1
range 2

Input CCCCCc1ccc(O)c(-c2cc(CCC)ccc2O)c1 ; output its category
range 3

Using the reported inhibition at 10 µM, which band applies to CCCCCCc1ccc(O)c(-c2cc(CCCC)ccc2O)c1 ?
range 3

Bin this entry: C=CCc1ccc(O)c(-c2ccc(OC)c(CC=C)c2)c1 [Compound 11, 4′-O-Methylhonokiol, reference compound]
range 1

Categorize the following entry: CCCCCCc1ccc(O)c(-c2cc(CCC)ccc2OC)c1 [Compound 61a]
range 1

Sort CCc1ccc(O)c(-c2cc(CC)ccc2O)c1 into one of the categories.
range 1

GET /class?item= CCCCCc1ccc(O)c(-c2ccccc2O)c1
range 1

# bin lookup: classify CCCCCCc1ccc(O)c(-c2cc(CC)ccc2O)c1 by its inhibition at 10 µM
range 3

Lab log: CCCCc1ccc(O)c(-c2ccccc2O)c1 — assign inhibition at 10 µM category
range 1

Form: Item = Cc1ccc(O)c(-c2cc(C)ccc2O)c1 ; Class = ?
range 1

====

Give pIC50 for every item shown.
- assay_system: human GPR55 (Homo sapiens)
- protocol_summary: β-arrestin recruitment assay (PathHunter), CHO cells expressing GPR55
- conditions: GPR55 IC50, β-arrestin recruitment, antagonist mode vs. LPI (1 µM)
pIC50: −log10 of the molar value.

Known pIC50 results, listed for orientation:
• Cc1c(C(=O)NN2CCCCC2)nn(-c2ccc(Cl)cc2Cl)c1-c1ccc(Cl)cc1 [Compound 5, rimonabant, reference compound] = < 5.00
• Cc1ccc(O)c(-c2cc(C)ccc2O)c1 [Compound 41] = < 5.00
• CCCCCc1ccc(O)c(-c2cc(CCC)ccc2OC)c1 [Compound 60a] = 5.16

Your task in this section: give pIC50 for each listed record.
1. CCCc1ccc(O)c(-c2cc(CCC)ccc2OC)c1 [Compound 12a, methoxytetrahydromagnolol]
2. CCCCCCC(C)(C)c1ccc(C2CC(O)CCC2CCCO)c(O)c1 (single isomer, unassigned; (-)) [Compound 4, reference compound]
3. CCCc1ccc(O)c(-c2cc(C)ccc2O)c1 [Compound 50]

[5.34, 5.79, "< 5.00"]

Hello, the source for this data is paper PMC3813752, in case you need it.
